# target: PAK1 (Homo sapiens, UniProt Q13153)
# Sequence (Q13153 whole entry): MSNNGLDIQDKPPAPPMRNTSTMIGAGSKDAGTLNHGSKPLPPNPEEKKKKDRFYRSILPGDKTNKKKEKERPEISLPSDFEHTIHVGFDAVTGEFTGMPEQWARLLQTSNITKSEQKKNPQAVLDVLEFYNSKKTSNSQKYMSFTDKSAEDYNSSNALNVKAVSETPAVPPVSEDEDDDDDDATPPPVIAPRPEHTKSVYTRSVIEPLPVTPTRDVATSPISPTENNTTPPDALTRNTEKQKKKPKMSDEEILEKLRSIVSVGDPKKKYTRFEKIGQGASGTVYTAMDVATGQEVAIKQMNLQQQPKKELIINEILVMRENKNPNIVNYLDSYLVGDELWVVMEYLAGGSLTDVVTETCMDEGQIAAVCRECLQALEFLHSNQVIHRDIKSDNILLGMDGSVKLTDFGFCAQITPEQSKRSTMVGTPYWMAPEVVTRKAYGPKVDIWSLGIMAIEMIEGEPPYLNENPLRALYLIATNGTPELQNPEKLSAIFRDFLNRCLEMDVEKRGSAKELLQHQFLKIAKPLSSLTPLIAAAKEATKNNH
# experiment: Z'Lyte fluorescence-based (FRET) PAK kinase assay, PAK1
# Format: biochemical
# conditionDetails: Table 1 of Example 100; 50 μM ATP
endpointName: IC50

Request: Tell me reported IC50 for `Cc1cccnc1Cn1c(=O)ccc2cnc(Nc3ccc(N4CCN(C)CC4)cc3)nc21` , tested with PAK1 (Homo sapiens, UniProt Q13153).
Response: 1 to 10 µM

Request: Tell me reported IC50 for `CN1CCN(c2ccc(Nc3ncc4ccc(=O)n(Cc5ccccc5F)c4n3)cc2)CC1` , tested with PAK1 (Homo sapiens, UniProt Q13153).
Response: 1 to 10 µM

Request: Tell me reported IC50 for CN(c1ccc(Nc2ncc3ccc(=O)n(Cc4ccccc4C(F)(F)F)c3n2)cc1)C1CCCNC1 (centres unmarked) , tested with PAK1 (Homo sapiens, UniProt Q13153).
Response: < 1 µM

====

# target: PAK4 (Homo sapiens, UniProt O96013)
# Sequence (O96013 whole entry): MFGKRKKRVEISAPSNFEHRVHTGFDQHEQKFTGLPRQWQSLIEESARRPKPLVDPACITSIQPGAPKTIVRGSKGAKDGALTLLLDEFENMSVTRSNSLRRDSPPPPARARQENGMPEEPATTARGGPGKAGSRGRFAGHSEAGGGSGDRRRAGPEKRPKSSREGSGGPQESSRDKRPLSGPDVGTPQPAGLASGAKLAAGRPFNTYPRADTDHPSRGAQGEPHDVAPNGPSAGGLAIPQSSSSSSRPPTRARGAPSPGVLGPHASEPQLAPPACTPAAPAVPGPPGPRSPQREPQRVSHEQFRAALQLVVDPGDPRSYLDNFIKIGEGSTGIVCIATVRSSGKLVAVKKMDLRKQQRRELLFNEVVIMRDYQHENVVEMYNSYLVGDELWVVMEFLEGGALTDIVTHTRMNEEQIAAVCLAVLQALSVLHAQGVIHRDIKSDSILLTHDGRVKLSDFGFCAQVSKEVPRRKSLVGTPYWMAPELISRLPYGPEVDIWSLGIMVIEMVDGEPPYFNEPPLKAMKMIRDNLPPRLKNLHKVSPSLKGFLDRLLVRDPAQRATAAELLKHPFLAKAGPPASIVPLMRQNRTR
# experiment: Z'Lyte fluorescence-based (FRET) PAK kinase assay, PAK4
# Type: biochemical
# conditionDetails: Table 1 of Example 29 (own compound numbering); 5 μM ATP
endpointName: IC50

Solved entries:
>>> experimentalresult("O=c1c(-c2ccccc2)cc2cnc(Nc3ccc(N4CCNCC4)cc3)nc2n1Cc1ccccc1C(F)(F)F")
"1000 to 10000 nM"
>>> experimentalresult("COc1ccc(Cn2c(=O)ccc3cnc(Nc4ccc(N5CCN(C)CC5)cc4)nc32)cc1")
"> 10000 nM"
>>> experimentalresult("Cc1cccc(O)c1Cn1c(=O)ccc2cnc(Nc3ccc(N4CCN(C)CC4)cc3)nc21")
"< 1000 nM"
>>> experimentalresult("CN1CCN(c2ccc(Nc3ncc4ccc(=O)n(CCc5ccccc5)c4n3)cc2)CC1")
"< 1000 nM"
>>> experimentalresult("CN1CCN(c2ccc(Nc3ncc4ccc(=O)n(Cc5c(O)cccc5Cl)c4n3)cc2)CC1")
"< 1000 nM"
>>> experimentalresult("CN1CCN(c2ccc(Nc3ncc4ccc(=O)n(CC(=O)c5ccccc5)c4n3)cc2)CC1")
"1000 to 10000 nM"
>>> experimentalresult("CN1CCN(c2ccc(Nc3ncc4ccc(=O)n(Cc5ccc(Cl)cc5)c4n3)cc2)CC1")
"> 10000 nM"
>>> experimentalresult("Cc1cccnc1Cn1c(=O)ccc2cnc(Nc3ccc(N4CCN(C)CC4)cc3)nc21")
"1000 to 10000 nM"
>>> experimentalresult("COc1ccccc1Cn1c(=O)ccc2cnc(Nc3ccc(N4CCN(C)CC4)cc3)nc21")
"1000 to 10000 nM"
>>> experimentalresult("O=c1c(-c2ccccc2)cc2cnc(Nc3ccc(NC4CCCNC4)cc3)nc2n1Cc1ccccc1C(F)(F)F (stereo not shown)")
"1000 to 10000 nM"

Request: Tell me reported IC50 for `O=c1ccc2cnc(Nc3ccc(N4CCNCC4)c(F)c3)nc2n1Cc1c(Cl)cccc1C1CC1` , tested with PAK4 (Homo sapiens, UniProt O96013).
Response: 1000 to 10000 nM

Request: Tell me reported IC50 for `Cc1cc(F)ccc1Cn1c(=O)ccc2cnc(Nc3ccc(N4CCN(C)CC4)cc3)nc21` , tested with PAK4 (Homo sapiens, UniProt O96013).
Response: 1000 to 10000 nM

Request: Tell me reported IC50 for `CN(C)c1ccc(Nc2ncc3ccc(=O)n(C4CCCC4)c3n2)cc1` , tested with PAK4 (Homo sapiens, UniProt O96013).
Response: 1000 to 10000 nM

Request: Tell me reported IC50 for Cc1ccccc1Cn1c(=O)ccc2cnc(Nc3ccc(N4CCN(C)CC4)cc3)nc21 [Compound 117] , tested with PAK4 (Homo sapiens, UniProt O96013).
Response: < 1000 nM

Request: Tell me reported IC50 for O=c1ccc2cnc(Nc3ccc(N4CCNCC4)cc3)nc2n1C1CCCc2ccccc21 (stereo not shown) , tested with PAK4 (Homo sapiens, UniProt O96013).
Response: 1000 to 10000 nM

Request: Tell me reported IC50 for `CN1CCN(c2ccc(Nc3ncc4ccc(=O)n(Cc5ccccc5)c4n3)cc2)CC1` , tested with PAK4 (Homo sapiens, UniProt O96013).
Response: > 10000 nM

====

Some compounds, each annotated with its measured IC50.
# target: PAK1 (Homo sapiens, UniProt Q13153)
# experiment: Z'Lyte fluorescence-based (FRET) PAK kinase assay, PAK1
# Format: biochemical
# conditionDetails: Table 1 of Example 100; 50 μM ATP

Request: GET /values?readout=IC50&item= CN1CCN(c2ccc(Nc3ncc4ccc(=O)n(Cc5ccc(F)cc5)c4n3)cc2)CC1 [Compound 28]
Response: 1000 to 10000 nM

Request: GET /values?readout=IC50&item= CN1CCN(c2ccc(Nc3ncc4ccc(=O)n(Cc5cccc(F)c5)c4n3)cc2)CC1 [Compound 27]
Response: 1000 to 10000 nM

Request: GET /values?readout=IC50&item= Cc1cc(Nc2nccc(-c3ccc(NCCN)nc3)n2)ccc1N1CCN(C)CC1 [compound 83]
Response: < 1000 nM

====

Some compounds, each annotated with its measured IC50.
# target: UniProt O96013
# experiment: Z'Lyte fluorescence-based (FRET) PAK kinase assay, PAK4
# Type: biochemical
# conditionDetails: Table 1 of Example 29 (own compound numbering); 5 μM ATP

>>> experimentalresult("CN(C)CCNc1ccc(Nc2ncc3ccc(=O)n(C4CCCC4)c3n2)cc1")
"1000 to 10000 nM"
>>> experimentalresult("O=c1ccc2cnc(Nc3ccc(OC4CCNCC4)cc3)nc2n1Cc1ccccc1C(F)(F)F")
"< 1000 nM"
>>> experimentalresult("CN1CCN(c2ccc(Nc3ncc4ccc(=O)n(Cc5ccccc5C#N)c4n3)cc2)CC1")
"1000 to 10000 nM"
>>> experimentalresult("O=c1ccc2cnc(Nc3ccc(OC4CCCNC4)cc3)nc2n1Cc1ccccc1C(F)(F)F (centres unmarked)")
"< 1000 nM"
>>> experimentalresult("Cc1cc(Nc2nccc(-c3ccc(NCCN)nc3)n2)ccc1N1CCN(C)CC1")
"< 1000 nM"
>>> experimentalresult("CN1CCN(c2ccc(Nc3ncc4ccc(=O)n(Cc5ccccn5)c4n3)cc2)CC1")
"1000 to 10000 nM"
>>> experimentalresult("CN1CCN(c2ccc(Nc3ncc4ccc(=O)n(C5CCCC5)c4n3)cc2)CC1")
"1000 to 10000 nM"

Field: next compound
Request: GET /values?readout=IC50&item= `CN1CCN(c2ccc(Nc3ncc4ccc(=O)n(Cc5ccccc5Cl)c4n3)cc2)CC1`
Response: 1000 to 10000 nM

====

Some compounds, each annotated with its measured IC50.
# target: PAK4 (Homo sapiens)
# experiment: Z'Lyte fluorescence-based (FRET) PAK kinase assay, PAK4
# Assay type: biochemical
# conditionDetails: Table 1 of Example 100; 5 μM ATP

Solved entries:
>>> experimentalresult("CN(C)CCNc1ccc(Nc2ncc3ccc(=O)n(C4CCCC4)c3n2)cc1")
"1 to 10 µM"
>>> experimentalresult("O=c1ccc2cnc(Nc3ccc(N4CCOCC4)cc3)nc2n1C1CCCC1")
"1 to 10 µM"
>>> experimentalresult("Cc1cc(F)ccc1Cn1c(=O)ccc2cnc(Nc3ccc(N4CCN(C)CC4)cc3)nc21")
"1 to 10 µM"

Request: GET /values?readout=IC50&item= `O=c1c(-c2ccccc2)cc2cnc(Nc3ccc(N4CCNCC4)cc3)nc2n1Cc1ccccc1C(F)(F)F`
Response: 1 to 10 µM

Request: GET /values?readout=IC50&item= `CN1CCN(c2ccc(Nc3ncc4ccc(=O)n(Cc5ccccc5-n5cccn5)c4n3)cc2)CC1`
Response: 1 to 10 µM

Request: GET /values?readout=IC50&item= `O=c1ccc2cnc(Nc3ccc(N4CCNCC4)cc3)nc2n1Cc1ccccc1C(F)(F)F`
Response: < 1 µM

Request: GET /values?readout=IC50&item= CN(C)CC(c1ccccc1)n1c(=O)ccc2cnc(Nc3ccc(N4CCN(C)CC4)cc3)nc21 (centres unmarked)
Response: > 10 µM

Request: GET /values?readout=IC50&item= `CN1CCN(c2ccc(Nc3ncc4ccc(=O)n(Cc5ccc(F)cc5)c4n3)cc2)CC1`
Response: > 10 µM

====

# target: PAK2 (Homo sapiens)
# Sequence (Q13177 whole entry): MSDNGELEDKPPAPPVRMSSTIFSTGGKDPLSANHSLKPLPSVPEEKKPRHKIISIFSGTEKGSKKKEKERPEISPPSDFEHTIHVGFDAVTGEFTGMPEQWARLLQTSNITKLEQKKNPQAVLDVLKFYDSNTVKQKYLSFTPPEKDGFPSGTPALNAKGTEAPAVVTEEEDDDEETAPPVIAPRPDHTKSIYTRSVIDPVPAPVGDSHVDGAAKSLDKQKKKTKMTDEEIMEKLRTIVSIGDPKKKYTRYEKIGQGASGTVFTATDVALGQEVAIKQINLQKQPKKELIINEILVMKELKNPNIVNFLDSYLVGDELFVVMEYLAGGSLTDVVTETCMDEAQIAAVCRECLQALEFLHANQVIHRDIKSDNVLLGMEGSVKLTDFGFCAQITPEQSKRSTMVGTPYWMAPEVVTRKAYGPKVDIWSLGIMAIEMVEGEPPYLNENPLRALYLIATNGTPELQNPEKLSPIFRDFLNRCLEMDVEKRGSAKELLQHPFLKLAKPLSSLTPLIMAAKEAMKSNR
# experiment: Z'Lyte fluorescence-based (FRET) PAK kinase assay, PAK2
# Assay type: biochemical
# conditionDetails: Table 1 of Example 29 (own compound numbering); 75 µM ATP
pIC50: −log10 of the molar value.
endpointName: pIC50

Solved entries:
>>> experimentalresult("CC(c1ccccc1)n1c(=O)ccc2cnc(Nc3ccc(N4CCN(C)CC4)cc3)nc21 (centres unmarked)")
"5.00 to 6.00"
>>> experimentalresult("Cc1cccnc1Cn1c(=O)ccc2cnc(Nc3ccc(N4CCN(C)CC4)cc3)nc21")
"5.00 to 6.00"

Request: GET /values?readout=pIC50&item= `COc1ccc(F)cc1Cn1c(=O)ccc2cnc(Nc3ccc(N4CCN(C)CC4)cc3)nc21`
Response: 5.00 to 6.00

Request: GET /values?readout=pIC50&item= `CN1CCN(c2ccc(Nc3ncc4ccc(=O)n(CCc5ccccc5)c4n3)cc2)CC1`
Response: > 6.00

Request: GET /values?readout=pIC50&item= CN1CCN(c2ccc(Nc3ncc4ccc(=O)n(Cc5c(F)cccc5[S+](C)[O-])c4n3)cc2)CC1 (centres unmarked)
Response: 5.00 to 6.00

Request: GET /values?readout=pIC50&item= `CN1CCN(c2ccc(Nc3ncc4ccc(=O)n(Cc5ccccc5)c4n3)cc2)CC1`
Response: 5.00 to 6.00

Request: GET /values?readout=pIC50&item= `CN1CCN(c2ccc(Nc3nccc(-c4ccc(O)nc4)n3)cc2)CC1`
Response: < 5.00

Request: GET /values?readout=pIC50&item= CN1CCCC(Nc2ccc(Nc3ncc4ccc(=O)n(Cc5ccccc5C(F)(F)F)c4n3)cc2)C1 (centres unmarked)
Response: > 6.00

Request: GET /values?readout=pIC50&item= `CN1CCN(c2ccc(Nc3ncc4ccc(=O)n(Cc5ccccc5-c5ncno5)c4n3)cc2)CC1`
Response: 5.00 to 6.00

Request: GET /values?readout=pIC50&item= `Cc1cccc(O)c1Cn1c(=O)ccc2cnc(Nc3ccc(N4CCN(C)CC4)cc3)nc21`
Response: 5.00 to 6.00
